Numbers sourced from the supplement of paper PMC10567573.

A collection of variants and their measured protein stability index
B1: SNAP91 (parent)
chain: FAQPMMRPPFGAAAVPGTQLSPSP

Variants of: B1
measurement description: protein stability index of a GFP-peptide fusion (GPS, HEK-293T) (PSI 1-6); higher = more stable;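 also: lentivirally expressed fusions sorted by FACS into six bins by GFP to DsRed ratio, PSI derived from sequencing read proportions per bin multiplied by bin number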
condition: c terminus: a fixed tail appended
Answer field: number only, no words.

{"seq": "FCQPMMRPPFGAAAVPGTQLSPSP [A2C]", "protein stability index": 2.73}
{"seq": "FAQPMMRPPFGAAAVPGTQLTPSP [S21T]", "protein stability index": 3.06}

// next item, protein stability index requested
// query Any idea what its protein stability index is? The variant is FAQPMMRPPFGHAAVPGTQLSPSP [A12H]
// result 2.96
